Cited source: patent US12312356B2

Provide the recorded EC50 for the entries that follow.
test system: L4 stage Dirofilaria immitis worms; assay: Screening method to test activity against L4 stage larvae of Dirofilaria immitis (motility, dose response); format: cell-based; conditions: 72 h, read-out: EC50 value (motility of L4 larvae)

Query Cc1nc2c(C(C)C)c(NC(=O)[C@@H]3CCOc4ccccc43)cnn2c1-c1cc(F)cc(F)c1 yields EC50 of 1000 to 10000 nM

Query Cc1nc2c(C(C)C)c(C(=O)N[C@H]3CCOc4ccccc43)cnn2c1N1CCCCC1 yields EC50 of 1 to 10 nM

Query Cc1nc2c(C(C)(C)F)c(C(=O)N[C@H]3CCOc4ccccc43)cnn2c1-c1cc(F)cc(F)c1 yields EC50 of 1 to 10 nM

Query Cc1nc2c(C(C)C)c(C(=O)N[C@H]3CCOc4ccccc43)cnn2c1[C@H]1CC[C@H](C(F)(F)F)CC1 yields EC50 of 10 to 100 nM

Query Cc1nc2c(C(C)C)c(C(=O)N[C@H]3CCOc4ccccc43)cnn2c1C(C)(C)C yields EC50 of 100 to 1000 nM

Query Cc1nc2c(C(C)C)c(NC(=O)[C@H]3CCOc4ccccc43)cnn2c1-c1cc(F)cc(F)c1 yields EC50 of 10 to 100 nM

Query Cc1nc2c(C(C)C)c(C(=O)N[C@H]3CCOc4ccccc43)cnn2c1CC(C)C yields EC50 of 10 to 100 nM

Query Cc1nc2c(C(C)C)c(C(=O)N[C@H]3CCOc4ccccc43)cnn2c1-c1cc(Cl)cc(Cl)c1 yields EC50 of < 1 nM
